Source listed as patent EP2308883A1.

Recorded IC50 by entry
# target.or.test.system: GSK-3 (Trypanosoma cruzi)
# Sequence (Q4E1X0 1-353): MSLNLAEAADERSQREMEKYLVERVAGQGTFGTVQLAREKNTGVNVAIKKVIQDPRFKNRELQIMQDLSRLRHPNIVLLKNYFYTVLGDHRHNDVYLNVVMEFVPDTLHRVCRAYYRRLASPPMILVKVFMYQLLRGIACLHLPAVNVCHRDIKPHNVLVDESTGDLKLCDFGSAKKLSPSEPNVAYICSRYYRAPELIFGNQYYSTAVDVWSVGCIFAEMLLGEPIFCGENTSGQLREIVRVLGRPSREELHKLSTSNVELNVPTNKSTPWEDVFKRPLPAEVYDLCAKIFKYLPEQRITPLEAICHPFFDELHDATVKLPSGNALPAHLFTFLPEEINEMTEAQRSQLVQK
# assay.comment: Species specificity: recombinant tagged GSK-3 orthologue kinase assay
# Assay type: biochemical
# condition.context: calculated from dose-response curves; -(100) taken as no inhibition at 100; read-out: IC50 Trypanopsoma cruzi
measurement.label: IC50

{"columns": ["given.smiles", "measurement.label", "observed.result"],
 "data": [
  ["N#Cc1cccc(C(=O)c2sc3nc(N)c(C#N)c(-c4ccccc4Cl)c3c2N)c1", "IC50", "> 100 µM"],
  ["N#Cc1c(N)nc2sc(C(=O)c3cccc(Cl)c3)c(N)c2c1-c1ccccc1I", "IC50", "> 100 µM"],
  ["N#Cc1c(N)nc2sc(C(=O)c3cccc(Cl)c3)c(N)c2c1-c1ccccc1Br", "IC50", "> 100 µM"]
]}
